All values here come from paper PMC6175223.

Test: Study B
Assay type: in vivo, human
Settings: male, human, plasma, oral, 4 mg, t1/2, pomalidomide 4 mg administered alone; geometric mean (geometric CV%)
parameter: half-life (h)
Reply numerically in h, unit not repeated.

QUERY: Complete the entry with half-life for Nc1cccc2c1C(=O)N(C1CCC(=O)NC1=O)C2=O (stereo not shown) [pomalidomide]
RESULT: 6

###

Assay: Study B
Type: in vivo, human
Conditions: male, human, plasma, oral, 4 mg, Vz/F, pomalidomide 4 mg administered alone; geometric mean (geometric CV%)
parameter: Vd/F (L)
Reply numerically in L, unit not repeated.

QUERY: Complete the entry with Vd/F for Nc1cccc2c1C(=O)N(C1CCC(=O)NC1=O)C2=O (stereo not shown) [pomalidomide]
RESULT: 65.4

###

Experiment: Study B
Format: in vivo, human
Conditions: male, human, plasma, oral, 4 mg, tmax, pomalidomide 4 mg administered with fluvoxamine; median (minimum, maximum)
parameter: Tmax (h)
Reply numerically in h, unit not repeated.

QUERY: Complete the entry with Tmax for Nc1cccc2c1C(=O)N(C1CCC(=O)NC1=O)C2=O (stereo not shown) [pomalidomide]
RESULT: 4.5

###

Test: Study B
Type: in vivo, human
Conditions: male, human, plasma, oral, 4 mg, Cmax, pomalidomide 4 mg administered with fluvoxamine; geometric mean (geometric CV%)
parameter: Cmax (µg/mL)
Reply numerically in µg/mL, unit not repeated.

QUERY: Complete the entry with Cmax for Nc1cccc2c1C(=O)N(C1CCC(=O)NC1=O)C2=O (stereo not shown) [pomalidomide]
RESULT: 0.0595

###

Assay: Study A
Type: in vivo, human
Settings: male, human, plasma, oral, 4 mg, Cmax, nonsmokers; geometric mean (geometric CV%)
parameter: Cmax (ng/mL)
Reply numerically in ng/mL, unit not repeated.

QUERY: Complete the entry with Cmax for Nc1cccc2c1C(=O)N(C1CCC(=O)NC1=O)C2=O (stereo not shown) [pomalidomide]
RESULT: 56.3

###

Assay: Study A
Format: in vivo, human
Settings: male, human, plasma, oral, 4 mg, tmax, smokers; median (minimum, maximum)
parameter: Tmax (h)
Reply numerically in h, unit not repeated.

QUERY: Complete the entry with Tmax for Nc1cccc2c1C(=O)N(C1CCC(=O)NC1=O)C2=O (stereo not shown) [pomalidomide]
RESULT: 1.8

###

Test: Study B
Format: in vivo, human
Conditions: male, human, plasma, oral, 4 mg
parameter: AUC(0-inf) (ng·h/mL)
Reply numerically in ng·h/mL, unit not repeated.

QUERY: Complete the entry with AUC(0-inf) for Nc1cccc2c1C(=O)N(C1CCC(=O)NC1=O)C2=O (stereo not shown) [pomalidomide]
RESULT: 526

###

Experiment: Study B
Type: in vivo, human
Settings: male, human, plasma, oral, 4 mg, Vz/F, pomalidomide 4 mg administered with fluvoxamine; geometric mean (geometric CV%)
parameter: Vd/F (L)
Reply numerically in L, unit not repeated.

QUERY: Complete the entry with Vd/F for Nc1cccc2c1C(=O)N(C1CCC(=O)NC1=O)C2=O (stereo not shown) [pomalidomide]
RESULT: 64

###

Test: Study A
Type: in vivo, human
Details: male, human, plasma, oral, 4 mg, Cmax, smokers; geometric mean (geometric CV%)
parameter: Cmax

QUERY: Complete the entry with Cmax for Nc1cccc2c1C(=O)N(C1CCC(=O)NC1=O)C2=O (stereo not shown) [pomalidomide]
RESULT: 64.4 ng/mL

###

Test: Study A
Assay type: in vivo, human
Settings: male, human, plasma, oral, 4 mg, t1/2, smokers; geometric mean (geometric CV%)
parameter: half-life (h)
Reply numerically in h, unit not repeated.

QUERY: Complete the entry with half-life for Nc1cccc2c1C(=O)N(C1CCC(=O)NC1=O)C2=O (stereo not shown) [pomalidomide]
RESULT: 4.8

###

Test: Study B
Assay type: in vivo, human
Conditions: male, human, plasma, oral
parameter: AUC(0-inf) (ng·h/mL)
Reply numerically in ng·h/mL, unit not repeated.

QUERY: Complete the entry with AUC(0-inf) for Nc1cccc2c1C(=O)N(C1CCC(=O)NC1=O)C2=O (stereo not shown) [pomalidomide]
RESULT: 1190
